B1: scFv; the commonest letter at each place (parent)
chain 1: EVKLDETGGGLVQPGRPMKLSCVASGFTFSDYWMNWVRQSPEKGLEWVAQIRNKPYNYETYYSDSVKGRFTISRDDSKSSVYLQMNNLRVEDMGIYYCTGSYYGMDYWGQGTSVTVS
chain 2: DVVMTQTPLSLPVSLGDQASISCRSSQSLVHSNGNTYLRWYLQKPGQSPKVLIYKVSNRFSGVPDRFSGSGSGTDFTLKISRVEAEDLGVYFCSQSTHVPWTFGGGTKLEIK

- Variants of: B1
- test: yeast surface expression (ratio to wild type); higher = more expressed
- test_context: format: scFv 4-4-20, heavy + light

[
  {
    "alteration": "chain 1 G104A D106T",
    "yeast surface expression": 0.78
  },
  {
    "alteration": "chain 1 T28W F29M",
    "yeast surface expression": 0.897
  },
  {
    "alteration": "chain 1 Y32T N35P",
    "yeast surface expression": 0.612
  },
  {
    "alteration": "chain 1 G100D D106G G109S",
    "yeast surface expression": 0.224
  },
  {
    "alteration": "chain 1 Y103L",
    "yeast surface expression": 1.08
  },
  {
    "alteration": "chain 1 F29Q Y32C",
    "yeast surface expression": 1
  },
  {
    "alteration": "chain 1 T28C V37N",
    "yeast surface expression": 0.357
  },
  {
    "alteration": "chain 1 W36V",
    "yeast surface expression": 0.715
  },
  {
    "alteration": "chain 1 S30T M34E",
    "yeast surface expression": 0.314
  },
  {
    "alteration": "chain 1 M105V W108H",
    "yeast surface expression": 0.493
  },
  {
    "alteration": "chain 1 N35V W36M",
    "yeast surface expression": 0.488
  },
  {
    "alteration": "chain 1 G100P G104H",
    "yeast surface expression": 0.68
  },
  {
    "alteration": "chain 1 G100V W108C",
    "yeast surface expression": 0.628
  },
  {
    "alteration": "chain 1 Y102V W108A",
    "yeast surface expression": 0.315
  },
  {
    "alteration": "chain 1 Y102T",
    "yeast surface expression": 0.932
  },
  {
    "alteration": "chain 1 T28L S30Y",
    "yeast surface expression": 0.738
  },
  {
    "alteration": "chain 1 D106Y G109K",
    "yeast surface expression": 0.136
  },
  {
    "alteration": "chain 1 T28C",
    "yeast surface expression": 0.965
  },
  {
    "alteration": "chain 1 G100V Y103R G104L",
    "yeast surface expression": 0.88
  },
  {
    "alteration": "chain 1 G100P Y102W",
    "yeast surface expression": 0.682
  },
  {
    "alteration": "chain 1 Y102F M105R",
    "yeast surface expression": 1.2
  },
  {
    "alteration": "chain 1 Y102P G104Y W108S",
    "yeast surface expression": 0.379
  },
  {
    "alteration": "chain 1 S30L W33E",
    "yeast surface expression": 0.645
  },
  {
    "alteration": "chain 1 F29Y Y32A",
    "yeast surface expression": 1.02
  },
  {
    "alteration": "chain 1 D31Q N35L",
    "yeast surface expression": 0.418
  },
  {
    "alteration": "chain 1 Y107F G109N",
    "yeast surface expression": 0.555
  },
  {
    "alteration": "chain 1 Y103G M105S",
    "yeast surface expression": 0.983
  },
  {
    "alteration": "chain 1 F29N S30T M34E",
    "yeast surface expression": 1.73
  },
  {
    "alteration": "chain 1 Y32L N35F",
    "yeast surface expression": 0.363
  },
  {
    "alteration": "chain 1 G100L G109S",
    "yeast surface expression": 0.566
  },
  {
    "alteration": "chain 1 Y107R G109S",
    "yeast surface expression": 0.665
  },
  {
    "alteration": "chain 1 Y102K M105Y",
    "yeast surface expression": 0.955
  },
  {
    "alteration": "chain 1 Y102F G104Y W108D",
    "yeast surface expression": 0.204
  },
  {
    "alteration": "chain 1 M34A W36M",
    "yeast surface expression": 0.249
  },
  {
    "alteration": "chain 1 G100M M105P Y107D",
    "yeast surface expression": 0.325
  },
  {
    "alteration": "chain 1 G100I G109A",
    "yeast surface expression": 0.429
  },
  {
    "alteration": "chain 1 S101P Y103R",
    "yeast surface expression": 0.277
  },
  {
    "alteration": "chain 1 G104M W108V G109T",
    "yeast surface expression": 0.212
  },
  {
    "alteration": "chain 1 G104A D106K",
    "yeast surface expression": 0.362
  },
  {
    "alteration": "chain 1 S30R N35V",
    "yeast surface expression": 0.567
  },
  {
    "alteration": "chain 1 Y103I M105W",
    "yeast surface expression": 0.528
  },
  {
    "alteration": "chain 1 S101K G104W M105V",
    "yeast surface expression": 0.205
  },
  {
    "alteration": "chain 1 S30W Y32G",
    "yeast surface expression": 0.706
  },
  {
    "alteration": "chain 1 M34G N35H",
    "yeast surface expression": 0.394
  },
  {
    "alteration": "chain 1 Y32P",
    "yeast surface expression": 0.908
  },
  {
    "alteration": "chain 1 T28H M34H V37R",
    "yeast surface expression": 2.76
  }
]
